Each item that follows carries a reported inhibition at 360 h.
TEST PROTOCOL: Phytotoxicity against Gossypium (cotton) assessed as growth inhibition at 7.5 g/ha post-emergence treatment measured after 15 days by crop-selectivity assay
Type: organism-based
TEST CONDITIONS: in vivo, read-out: GI
READOUT: inhibition at 360 h

{"ENTRY SMILES": "C#CCN1C(=O)COc2cc(F)c(N3C(=O)C4=C(CCCC4)C3=O)cc21", "READOUT": "inhibition at 360 h", "VAL": "> 10%"}
{"ENTRY SMILES": "C#CCN1C(=O)COc2cc(F)c(N3C(=O)c4ccc(F)cc4C3=O)cc21", "READOUT": "inhibition at 360 h", "VAL": "> 10%"}

====

TEST PROTOCOL: Phytotoxicity against Glycine max (soybean) assessed as growth inhibition at 15 g/ha post-emergence treatment measured after 15 days by crop-selectivity assay
Format: organism-based
TEST CONDITIONS: in vivo, read-out: GI
Each item that follows carries a reported inhibition at 360 h.

{"COMPOUND": "C#CCN1C(=O)COc2cc(F)c(N3C(=O)C4=C(CCCC4)C3=O)cc21 [FLUMIOXAZIN]", "inhibition at 360 h": "> 10%"}
{"COMPOUND": "C#CCN1C(=O)COc2cc(F)c(N3C(=O)c4ccc(F)cc4C3=O)cc21", "inhibition at 360 h": "> 10%"}

====

TEST PROTOCOL: Phytotoxicity against Zea mays (maize) assessed as growth inhibition at 7.5 g/ha post-emergence treatment measured after 15 days by crop-selectivity assay
Assay type: organism-based
TEST CONDITIONS: in vivo, read-out: GI

{"ENTRY SMILES": "C#CCN1C(=O)COc2cc(F)c(N3C(=O)C4=C(CCCC4)C3=O)cc21", "UNIT DESCRIPTOR": "%", "QUALIFIER SIGN": ">", "inhibition at 360 h": 10}
{"ENTRY SMILES": "C#CCN1C(=O)COc2cc(F)c(N3C(=O)c4ccc(F)cc4C3=O)cc21", "UNIT DESCRIPTOR": "%", "QUALIFIER SIGN": "=", "inhibition at 360 h": 1}

====

TEST PROTOCOL: Phytotoxicity against Gossypium (cotton) assessed as growth inhibition at 30 g/ha post-emergence treatment measured after 15 days by crop-selectivity assay
Assay type: organism-based
TEST CONDITIONS: in vivo, read-out: GI

{"ENTRY SMILES": "C#CCN1C(=O)COc2cc(F)c(N3C(=O)C4=C(CCCC4)C3=O)cc21", "inhibition at 360 h": "> 10%"}
{"ENTRY SMILES": "C#CCN1C(=O)COc2cc(F)c(N3C(=O)c4ccc(F)cc4C3=O)cc21", "inhibition at 360 h": "> 10%"}

====

TEST PROTOCOL: Phytotoxicity against Oryza sativa (rice) assessed as growth inhibition at 7.5 g/ha post-emergence treatment measured after 15 days by crop-selectivity assay
Type: organism-based
TEST CONDITIONS: in vivo, 7.5 g/ha, read-out: GI
READOUT: inhibition at 360 h

{"ENTRY SMILES": "C#CCN1C(=O)COc2cc(F)c(N3C(=O)C4=C(CCCC4)C3=O)cc21", "READOUT": "inhibition at 360 h", "VAL": "> 10%"}
